Tested on: Maize
protocol.description: Post-emergence test/greenhouse
Assay type: in vivo
details: Zea mays, 504 h, 1000 g of ai./ha, plants 5-15 cm sprayed, rated after three weeks vs untreated control, 0%=no effect, 100%=total destruction, read-out: degree of damage to the plants, Maize
Examples of compounds with documented plant injury at 1000 g/ha follow.
# unit: % | format: bare number

compound	metric.name	val
CCC(Nc1nc(N)nc(C(C)F)n1)c1cccs1 (centres unmarked) [drawing 229]	plant injury at 1000 g/ha	0
CCc1nc(N)nc(NC(C)c2cccs2)n1 (centres unmarked) [drawing 225]	plant injury at 1000 g/ha	30
CCc1nc(NC(C)=O)nc(NC(CC)c2cccs2)n1 (centres unmarked) [drawing 231]	plant injury at 1000 g/ha	20
CCC(Nc1nc(NC(C)=O)nc(C(C)Cl)n1)c1cccs1 (centres unmarked) [drawing 233]	plant injury at 1000 g/ha	0
CCc1nc(N)nc(NC(CC)c2cccs2)n1 (centres unmarked) [drawing 227]	plant injury at 1000 g/ha	30
CCc1nc(NC(C)=O)nc(NC(C)c2cccs2)n1 (centres unmarked) [drawing 226]	plant injury at 1000 g/ha	0

Find the measured plant injury at 1000 g/ha of CCC(Nc1nc(N)nc(C(C)Cl)n1)c1cccs1 (centres unmarked) [drawing 228] and report it.
30

Find the measured plant injury at 1000 g/ha of CCC(Nc1nc(N)nc(C(F)C(F)(F)F)n1)c1cccs1 (centres unmarked) [drawing 230] and report it.
10

* * *

Examples of compounds with documented melting point follow.

Find the measured melting point of CCc1nc(NC(C)=O)nc(NC(C)c2cccs2)n1 (centres unmarked) [Example 2] and report it.
153 °C

Find the measured melting point of CC(Nc1nc(N)nc(C(Cl)Cl)n1)c1cccs1 (centres unmarked) [Example 5] and report it.
135 °C

Find the measured melting point of CC(Cl)c1nc(N)nc(NC(C)c2cccs2)n1 (centres unmarked) [Example 6] and report it.
125 °C

Find the measured melting point of CCC(Nc1nc(NC(C)=O)nc(C(Cl)Cl)n1)c1cccs1 (centres unmarked) [Example 20] and report it.
131 °C

Find the measured melting point of CCC(Nc1nc(NC(C)=O)nc(C(C)(Cl)Cl)n1)c1cccs1 (centres unmarked) [Example 24] and report it.
113 °C

* * *

Test system: Maize
protocol.description: Post-emergence test/greenhouse
Assay type: in vivo
details: Zea mays, 504 h, 1000 g of ai./ha, plants 5-15 cm sprayed, rated after three weeks vs untreated control, 0%=no effect, 100%=total destruction, read-out: degree of damage to the plants, Maize
metric.name: plant injury at 1000 g/ha (%)
# unit: % | format: bare number

compound	system.tested	plant injury at 1000 g/ha / %
CCC(Nc1nc(NC(C)=O)nc(C(Cl)Cl)n1)c1cccs1 (stereo not drawn) [drawing 232]	Maize	0
CC(Cl)c1nc(N)nc(NC(C)c2cccs2)n1 (stereo not drawn) [drawing 236]	Maize	0

Find the measured plant injury at 1000 g/ha of CCC(Nc1nc(N)nc(C(Cl)Cl)n1)c1cccs1 (stereo not drawn) [drawing 237] and report it.
10

Just for reference, patent US6348435B1 is where these values come from.
